# SYSTEM_UNDER_TEST: BTK (Homo sapiens, UniProt Q06187)
# Sequence (Q06187 402-655 limits assumed): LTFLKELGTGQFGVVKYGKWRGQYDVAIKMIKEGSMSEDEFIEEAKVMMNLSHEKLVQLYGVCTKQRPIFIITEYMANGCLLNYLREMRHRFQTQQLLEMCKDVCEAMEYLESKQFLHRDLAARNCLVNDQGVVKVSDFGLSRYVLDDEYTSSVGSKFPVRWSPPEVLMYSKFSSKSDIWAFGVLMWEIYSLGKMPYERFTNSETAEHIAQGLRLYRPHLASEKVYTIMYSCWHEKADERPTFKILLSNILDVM
# ASSAY_PROCEDURE: biochemical
# PARTICULARS: read-out: BTK inhibition (%), 0.75 uM BTK, […] probe 3l, 15 min preincubation
READOUT: inhibition at 10 µM (%)
Answer format: numeric, % implied, no suffix.

Consider the worked cases shown below.
COMPOUND | SYSTEM_UNDER_TEST | READOUT | RECORDED_RESULT
CC[C@H](C)n1cc(C)c2c(C(=O)NCc3c(C)cc(C)[nH]c3=O)cc(-c3ccc(N4CCNCC4)nc3)cc21 | BTK (Homo sapiens, UniProt Q06187) | inhibition at 10 µM | -2.6
O=C(Oc1cc(S(=O)(=O)c2ccccc2)ccc1[N+](=O)[O-])c1ccc(Cl)cc1 | BTK (Homo sapiens, UniProt Q06187) | inhibition at 10 µM | -3.1
O=C(O)C1=CO[C@@H](O[C@@H]2O[C@H](CO)[C@@H](O)[C@H](O)[C@H]2O)[C@@H]2C(CO)=CC[C@H]12 | BTK (Homo sapiens, UniProt Q06187) | inhibition at 10 µM | -2.8

Please examine the following record next.
Input: // inhibition at 10 µM lookup, key: Cc1[nH]c(/C=C2\C(=O)Nc3ccc(F)cc32)c(C)c1C(=O)NCCN1CCCC1
Output: 18.7

----------
# SYSTEM_UNDER_TEST: UniProt Q06187
# ASSAY_PROCEDURE: biochemical
# PARTICULARS: read-out: BTK inhibition (%), 0.75 uM BTK, […] probe 3l, 15 min preincubation
READOUT: inhibition at 10 µM

# count of solved cases: 5
COMPOUND | SYSTEM_UNDER_TEST | RECORDED_RESULT
Cc1c(NC(=O)OC[C@@H]2COCCN2)cn2ncnc(Nc3ccc4c(cnn4Cc4cccc(F)c4)c3)c12 | UniProt Q06187 | 32.4%
Cc1ccc(NC(=O)C2(c3ccc4c(c3)OC(F)(F)O4)CC2)nc1-c1cccc(C(=O)O)c1 | UniProt Q06187 | -9.3%
CCCCNC(=O)NS(=O)(=O)c1ccc(C)cc1 | UniProt Q06187 | -11.7%
CC(C)c1ccc(CO)cc1 | UniProt Q06187 | -6.2%
CNc1nc(-c2ccc3c(N)n[nH]c3c2)cc(N2C[C@@H](C(=O)NC3CCCCC3)CC[C@H]2C)n1 | UniProt Q06187 | 24.1%

Input: Need inhibition at 10 µM, item O=c1c(O)c(-c2ccc(O)cc2O)oc2cc(O)cc(O)c12
Output: 10.1%

Input: # repeat for Cc1[nH]nc2ccc(-c3cncc(OC[C@@H](N)Cc4ccccc4)c3)cc12
Output: -17.2%

Input: Would you kindly repeat that for O=C(O)c1ccc(CN2CCC(CN[C@@H]3C[C@H]3c3ccccc3)CC2)cc1 ?
Output: 0.8%

Input: Could you do the same for NC(=O)[C@@H]1CC[C@@H]2CN1C(=O)N2OS(=O)(=O)O , please?
Output: -9.3%

Input: Also O=C(NS(=O)(=O)c1ccc(Br)s1)c1ccc(Cl)cc1Cl ?
Output: -10%

----------
# SYSTEM_UNDER_TEST: BTK (Homo sapiens)
# ASSAY_PROCEDURE: biochemical
# PARTICULARS: read-out: BTK inhibition (%), 0.75 uM BTK, […] probe 3l, 15 min preincubation
READOUT: inhibition at 10 µM (%)
Give the value in % but do not write % after it.

Input: What inhibition at 10 µM appears in the records for this molecule with BTK (Homo sapiens)? COc1cc(-c2ncn(/C=C\C(=O)OC(C)C)n2)cc(C(F)(F)F)c1
Output: -11.6

----------
# SYSTEM_UNDER_TEST: BTK (Homo sapiens)
# ASSAY_PROCEDURE: biochemical
# PARTICULARS: read-out: BTK inhibition (%), 0.75 uM BTK, […] probe 3l, 15 min preincubation
READOUT: inhibition at 10 µM

// solved cases for inhibition at 10 µM follow
SMILES_REPRESENTATION | SYSTEM_UNDER_TEST | RECORDED_RESULT
O=c1[nH]cnc2c1ncn2[C@H]1C[C@H](O)[C@@H](CO)O1 | BTK (Homo sapiens) | 0%
C[N+](C)(C)CCCCCC[N+](C)(C)C | BTK (Homo sapiens) | -14.5%

Now examine the next entry.
Input: May I ask what inhibition at 10 µM has been recorded for COc1c(O)cc2c(c1O)[C@@H]1O[C@H](CO)[C@@H](O)[C@H](O)[C@H]1OC2=O ?
Output: 7%

----------
# SYSTEM_UNDER_TEST: BTK (Homo sapiens, UniProt Q06187)
# ASSAY_PROCEDURE: biochemical
# PARTICULARS: read-out: BTK inhibition (%), 0.75 uM BTK, […] probe 3l, 15 min preincubation
inhibition at 10 µM reference
Just the number in %, nothing appended.

SMILES_REPRESENTATION | RECORDED_RESULT
C=C1C[C@@]23CC[C@H]4[C@@](C)(CCC[C@@]4(C)C(=O)O[C@@H]4O[C@H](CO)[C@@H](O)[C@H](O)[C@H]4O)[C@@H]2CC[C@]1(O[C@@H]1O[C@H](CO)[C@@H](O)[C@H](O[C@@H]2O[C@H](CO)[C@@H](O)[C@H](O)[C@H]2O)[C@H]1O[C@@H]1O[C@@H](C)[C@H](O)[C@@H](O)[C@H]1O)C3 | -14.8
Cn1nccc1Nc1nccc(-c2cc3c(s2)C(C)(C)N(CCN2CCOCC2)C3=O)n1 | 6.9
CC(=O)Nc1ccc(C(=O)Nc2ccccc2N)cc1 | -17.1
NC(=O)c1noc([C@H](CCCC2CCCCC2)CC(=O)NO)n1 | 10.1

Next item in the queue.
Input: So what does the record say about inhibition at 10 µM for O=C(/C=C/c1ccc(O[C@@H]2O[C@H](CO)[C@@H](O)[C@H](O)[C@H]2O)cc1)c1ccc(O)cc1O ?
Output: 19.3

----------
inhibition at 10 µM values for the compounds below.
# SYSTEM_UNDER_TEST: BTK (Homo sapiens, UniProt Q06187)
# ASSAY_PROCEDURE: biochemical
# PARTICULARS: read-out: BTK inhibition (%), 0.75 uM BTK, […] probe 3l, 15 min preincubation
Record the value in %, omitting the unit from your answer.

COMPOUND | SYSTEM_UNDER_TEST | QUANTITY_UNIT | inhibition at 10 µM
C[C@H](NC(=O)Cc1cc(F)cc(F)c1)C(=O)N[C@H](C(=O)OC(C)(C)C)c1ccccc1 [PCM-0095251] | BTK (Homo sapiens, UniProt Q06187) | % | -29
O=c1cc(-c2ccc(O)cc2)oc2cc(O)c(O)c(O)c12 [PCM-0216408] | BTK (Homo sapiens, UniProt Q06187) | % | 70.3
O=C(O)c1ccc2c(c1)nc(Nc1cccc(Cl)c1)c1ccncc12 [PCM-0095287] | BTK (Homo sapiens, UniProt Q06187) | % | 13.1
NC(=O)c1ccc(-c2nc(-c3ccc4c(c3)OCO4)c(-c3ccccn3)[nH]2)cc1 [PCM-0095013] | BTK (Homo sapiens, UniProt Q06187) | % | 12.4
N[C@@H]1CCCCN(c2c(F)cc3c(=O)c(C(=O)O)cn(C4CC4)c3c2Cl)C1 [PCM-0095545] | BTK (Homo sapiens, UniProt Q06187) | % | -15.3
Nc1cccc(S(=O)(=O)N2CCCN(S(=O)(=O)c3ccc4c(c3)OCCO4)CC2)c1 [PCM-0215556] | BTK (Homo sapiens, UniProt Q06187) | % | -2.8
COc1cccc2cc(-c3nc(C4CCC(C(=O)O)CC4)n4ncnc(N)c34)[nH]c12 (centres unmarked) [PCM-0095482] | BTK (Homo sapiens, UniProt Q06187) | % | 28.3

Let's switch to this compound now.
Input: For the record C[C@H](NC(=O)C(=O)Nc1ccccc1C(C)(C)C)C(=O)N[C@@H](CC(=O)O)C(=O)COc1c(F)c(F)cc(F)c1F [PCM-0215672] , what value of inhibition at 10 µM is listed for BTK (Homo sapiens, UniProt Q06187)?
Output: -17.9

----------
# SYSTEM_UNDER_TEST: BTK (Homo sapiens, UniProt Q06187)
# ASSAY_PROCEDURE: biochemical
# PARTICULARS: read-out: BTK inhibition (%), 0.75 uM BTK, […] probe 3l, 15 min preincubation
READOUT: inhibition at 10 µM (%)
Expressed in %, but write only the number.

SMILES_REPRESENTATION | READOUT | RECORDED_RESULT
O=c1[nH]ccc2c(S(=O)(=O)N3CCCNCC3)cccc12 | inhibition at 10 µM | -2.8
CC[C@H]1CN2CC[C@]3(C(=O)Nc4ccccc43)[C@@H]2C[C@@H]1/C(=C\OC)C(=O)OC | inhibition at 10 µM | 3.9
O=C1C(c2c(O)[nH]c3ccccc23)=Nc2ccccc21 | inhibition at 10 µM | 11
c1coc(CNc2ncnc3nc[nH]c23)c1 | inhibition at 10 µM | 10.9
CCOC(=O)COc1ccc(/C=C2\SC(=S)NC2=O)cc1OC | inhibition at 10 µM | 84.2

Input: For the record CS(=O)(=O)n1cc2c(n1)CN([C@H]1CO[C@H](c3cc(F)ccc3F)[C@@H](N)C1)C2 , what value of inhibition at 10 µM is listed for BTK (Homo sapiens, UniProt Q06187)?
Output: 4.6
